# credit: patent US20160251440A1

biological target: human IL12Rβ1, cell-expressed (human, UniProt P42701 24-662); assay: cell-based or functional assay
experimental.readout: fold ctrl, IL-17 release (fold)

>  <binder>
CD4#8-35GS-IL12Rb1#31 (bispecific antibody, also called BI#41; T023200041) EVQLVESGGGSVQPGGSLTLSCGTSGRTFNVMGWFRQAPGKEREFVAAVRWSSTGIYYTQYADSVKSRFTISRDNAKNTVYLEMNSLKPEDTAVYYCAADTYNSNPARWDGYDFRGQGTLVTVSSGGGGSGGGGSGGGGSGGGGSGGGGSGGGGSGGGGSEVQLVESGGGLVQTGGSLRLSCAASGRTPSIIAMGWFRQTPGKEREFVGEIILSKGFTYYADSVKGRFTISRANAKNTITMYLQMNSLKSEDTAVYYCAARQNWSGNPTRTNEYEYWGQGTLVTVSS

>  <experimental.value>
1710

$$$$
